- assay_overview: Pharmacokinetics in BALB/c mice
- Type: in vivo
- assay_conditions: BALB/c, plasma; mouse, intravenous 5 mg.kg^−1; read-out: Apparent half-life, t1/2 (converted)
property: half-life (min)
Please give a number only; it is taken to be in min.

q: Returns the measured half-life for the input compound. Input: CC(C)(C)NC(=O)c1ccc(OC/C(=C/F)CN)cc1 [PXS-4728A]
a: 36

----------
- assay_overview: Pharmacokinetics in BALB/c mice
- Assay type: in vivo
- assay_conditions: BALB/c, plasma; mouse, intravenous 5 mg.kg^−1; read-out: Apparent concentration at curve maximum Cmax
property: Cmax (ng/mL)
Please give a number only; it is taken to be in ng/mL.

q: Returns the measured Cmax for the input compound. Input: CC(C)(C)NC(=O)c1ccc(OC/C(=C/F)CN)cc1 [PXS-4728A]
a: 1600

Each recorded value in this set is attributed to paper PMC4389443.
